# target_or_test_system: IκBα ubiquitinating enzyme (SCF complex: ROC1, Cullin1, Skp1, His-TrCP1; with E1, UbcH5b) (Homo sapiens, UniProt P62877+P63208+Q13616+Q9Y297)
# Construct: His (polyhistidine); made in house; host or cells: insect cells (baculovirus) for the SCF complex and His-E1; E. coli for His-UBCH5b
# Sequence (Q9Y297 whole entry): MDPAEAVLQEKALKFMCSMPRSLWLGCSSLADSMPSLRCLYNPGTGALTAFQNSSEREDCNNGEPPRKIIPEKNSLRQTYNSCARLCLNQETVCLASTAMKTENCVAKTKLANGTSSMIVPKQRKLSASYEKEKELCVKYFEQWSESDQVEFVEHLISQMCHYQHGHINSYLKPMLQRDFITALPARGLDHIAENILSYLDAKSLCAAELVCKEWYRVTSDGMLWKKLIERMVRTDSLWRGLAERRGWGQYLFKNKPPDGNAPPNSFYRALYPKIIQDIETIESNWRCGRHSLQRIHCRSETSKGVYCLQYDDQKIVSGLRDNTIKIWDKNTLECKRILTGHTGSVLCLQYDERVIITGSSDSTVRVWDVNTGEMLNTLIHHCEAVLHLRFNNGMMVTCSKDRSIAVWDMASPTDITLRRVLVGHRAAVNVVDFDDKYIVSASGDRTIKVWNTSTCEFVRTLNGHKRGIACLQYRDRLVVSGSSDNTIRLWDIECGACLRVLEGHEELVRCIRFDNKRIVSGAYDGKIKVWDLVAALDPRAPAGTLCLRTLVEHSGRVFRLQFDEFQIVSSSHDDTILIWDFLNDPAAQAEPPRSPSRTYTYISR
# Sequence (Q13616 whole entry): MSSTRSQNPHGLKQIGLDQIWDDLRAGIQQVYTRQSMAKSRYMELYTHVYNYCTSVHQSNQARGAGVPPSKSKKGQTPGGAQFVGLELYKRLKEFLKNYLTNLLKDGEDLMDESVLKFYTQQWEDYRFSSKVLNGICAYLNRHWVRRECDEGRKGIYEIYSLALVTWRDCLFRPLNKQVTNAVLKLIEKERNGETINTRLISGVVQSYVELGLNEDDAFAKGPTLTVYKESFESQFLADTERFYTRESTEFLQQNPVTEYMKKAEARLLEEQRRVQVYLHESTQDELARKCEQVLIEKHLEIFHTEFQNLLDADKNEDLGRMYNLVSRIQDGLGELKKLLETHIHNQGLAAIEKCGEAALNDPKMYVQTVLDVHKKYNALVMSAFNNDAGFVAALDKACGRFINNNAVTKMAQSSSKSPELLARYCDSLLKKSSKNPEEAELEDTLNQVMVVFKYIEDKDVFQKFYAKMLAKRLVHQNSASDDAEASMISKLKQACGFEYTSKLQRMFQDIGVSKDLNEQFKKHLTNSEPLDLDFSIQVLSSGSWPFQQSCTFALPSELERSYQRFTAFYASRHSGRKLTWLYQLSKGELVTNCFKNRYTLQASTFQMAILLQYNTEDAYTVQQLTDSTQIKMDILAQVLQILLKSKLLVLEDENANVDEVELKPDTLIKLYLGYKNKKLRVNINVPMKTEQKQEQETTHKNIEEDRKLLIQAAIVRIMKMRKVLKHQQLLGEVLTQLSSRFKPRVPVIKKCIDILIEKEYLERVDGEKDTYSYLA
# Sequence (P63208 whole entry): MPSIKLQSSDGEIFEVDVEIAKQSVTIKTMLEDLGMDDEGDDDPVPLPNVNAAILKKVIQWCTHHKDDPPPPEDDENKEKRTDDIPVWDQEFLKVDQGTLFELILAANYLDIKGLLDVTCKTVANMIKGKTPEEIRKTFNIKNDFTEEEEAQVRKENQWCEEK
# Sequence (P62877 whole entry): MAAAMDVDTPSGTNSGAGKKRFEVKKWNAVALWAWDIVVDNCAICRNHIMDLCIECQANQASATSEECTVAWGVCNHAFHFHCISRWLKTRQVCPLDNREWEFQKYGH
# method_notes: Measurement of ubiquitinating enzyme activity (IκBα ubiquitination, time-resolved fluorescence with Eu(K)-labeled ubiquitin and XL665-labeled anti-GST antibody)
# Type: biochemical
# condition: enzyme activity inhibition test, method (1), Table 5; read-out: EVALUATION
test_readout: IC50

Before answering, review these 3 worked examples.
COc1cc(/C=C2\C(=O)N(Cc3cccc(O)c3)N=C2C)ccc1O = 10 to 20 µM
COc1cc(/C=C2\C(=O)N(c3ccc(S(N)(=O)=O)cc3)N=C2C)ccc1OCc1c(C)noc1C = < 40 µM
CC1=NN(c2cccc(C(=O)O)c2)C(=O)/C1=C\c1ccc2c(ccn2C(=O)c2ccco2)c1 = < 10 µM

Could you now consider this next compound?
Qu. Returns the measured IC50 for the input compound. Input: "COc1cc(/C=C2\C(=O)N(c3cccc(S(N)(=O)=O)c3)N=C2C)ccc1OCn1nnc2ccccc21"
Ans. 10 to 20 µM

---

# target_or_test_system: IκBα ubiquitinating enzyme (SCF complex: ROC1, Cullin1, Skp1, His-TrCP1; with E1, UbcH5b) (Homo sapiens, UniProt P62877+P63208+Q13616+Q9Y297)
# Construct: His (polyhistidine); made in house; host or cells: insect cells (baculovirus) for the SCF complex and His-E1; E. coli for His-UBCH5b
# method_notes: Measurement of ubiquitinating enzyme activity (IκBα ubiquitination, time-resolved fluorescence with Eu(K)-labeled ubiquitin and XL665-labeled anti-GST antibody)
# Type: biochemical
# condition: enzyme activity inhibition test, method (1), Table 5; read-out: EVALUATION
test_readout: IC50

Study these solved cases before continuing.
CC1=NN(c2ccc(C(=O)O)cc2)C(=O)/C1=C\c1ccc(NC(=O)c2ccccc2)cc1 = < 10 µM
COc1cc(/C=C2\C(=O)N(c3ccc(S(N)(=O)=O)cc3)N=C2C)ccc1OCC1CC1 = 10 to 20 µM
COc1ccc(C2=NN(c3ccc(C(=O)O)cc3)C(=O)C2=Cc2ccc(-n3cccn3)cc2)cc1OC = < 40 µM

Note: attention shifts to another entry.
Qu. Param item = "COC(=O)N1CCN(c2ccc(/C=C3\C(=O)N(c4ccc(C(=O)O)cc4)N=C3Cc3ccccc3)cc2)CC1" ; retrieve measured IC50.
Ans. < 10 µM

---

# target_or_test_system: IκBα ubiquitinating enzyme (SCF complex: ROC1, Cullin1, Skp1, His-TrCP1; with E1, UbcH5b) (Homo sapiens, UniProt P62877+P63208+Q13616+Q9Y297)
# Construct: His (polyhistidine); made in house; host or cells: insect cells (baculovirus) for the SCF complex and His-E1; E. coli for His-UBCH5b
# method_notes: Measurement of ubiquitinating enzyme activity (IκBα ubiquitination, time-resolved fluorescence with Eu(K)-labeled ubiquitin and XL665-labeled anti-GST antibody)
# Format: biochemical
# condition: enzyme activity inhibition test, method (1), Table 5; read-out: EVALUATION
# Description: Method 1: Measurement of ubiquitinating enzyme activity A recombinant vector His-UBCH5b containing a polyhistidine tag (His) and UBCH5b was prepared. E. coli was transformed with the vector, the protein was expressed, and affinity purification was carried out using Ni-NTA agarose (Qiagen). […]
pIC50: −log10 of the molar value.
Could you please report measured pIC50 for the items listed next?

Field: pIC50. Fill in for each record below.
1. COCC1=NN(c2ccc(C(=O)O)cc2)C(=O)/C1=C\c1ccc(-n2cccn2)cc1
2. CC1=NN(c2ccc(C(=O)O)cc2)C(=O)/C1=C\c1ccc(Oc2ccccc2)cc1
3. COC(=O)c1ccc(COc2ccc(/C=C3\C(=O)N(c4ccccc4)N=C3C)cc2OC)cc1
4. CC1=NN(c2cccc(C(=O)NCC3CC3)c2)C(=O)/C1=C\c1ccc2c(c1)OCCO2
5. CC1=NN(c2cccc(C(=O)O)c2)C(=O)/C1=C\c1ccc2c(ccn2C(=O)c2cccn2C)c1
6. O=C(O)c1ccc(N2N=C(c3ccoc3)/C(=C/c3ccc(N4CCCC4)cc3)C2=O)cc1
7. COCC1=NN(c2ccc(C(=O)O)cc2)C(=O)/C1=C\c1ccc(-n2ccnc2)cc1
8. CC1=NN(c2ccccc2)C(=O)/C1=C\c1ccc2[nH]ccc2c1

Ans.
> 5.00
> 5.00
> 4.40
> 4.40
> 5.00
> 5.00
> 5.00
> 5.00

---

# target_or_test_system: IκBα ubiquitinating enzyme (SCF complex: ROC1, Cullin1, Skp1, His-TrCP1; with E1, UbcH5b) (Homo sapiens, UniProt P62877+P63208+Q13616+Q9Y297)
# Construct: His (polyhistidine); made in house; host or cells: insect cells (baculovirus) for the SCF complex and His-E1; E. coli for His-UBCH5b
# method_notes: Measurement of ubiquitinating enzyme activity (IκBα ubiquitination, time-resolved fluorescence with Eu(K)-labeled ubiquitin and XL665-labeled anti-GST antibody)
# Format: biochemical
# condition: enzyme activity inhibition test, method (1), Table 5; read-out: EVALUATION
pIC50: −log10 of the molar value.
test_readout: pIC50

COCC1=NN(Cc2cccc(O)c2)C(=O)/C1=C\c1ccc(-c2ccccc2F)o1 = 4.70 to 5.00
COCC1=NN(c2ccc(C(=O)O)cc2)C(=O)/C1=C\c1ccc(-n2cncn2)cc1 = > 5.00
CC1=NN(c2cccc(C(=O)O)c2)C(=O)/C1=C\c1ccc(N2CCN(C(=O)c3ccccc3)CC2)cc1 = > 5.00
CC1=NN(c2cccc(C(=O)O)c2)C(=O)C1=Cc1ccc(N2CCN(c3ccccc3)CC2)cc1 = > 5.00
O=C(O)c1ccc(N2N=C(c3ccoc3)/C(=C/c3ccc(-n4cncn4)cc3)C2=O)cc1 = > 5.00
COc1cc(/C=C2\C(=O)N(c3cccc(S(N)(=O)=O)c3)N=C2C)ccc1OCC1CC1 = > 4.40
O=C(O)c1ccc(N2N=C(C3CC3)/C(=C/c3ccc4[nH]ccc4c3)C2=O)cc1 = > 5.00
CC1=NN(c2ccccc2)C(=O)/C1=C\c1ccc(OCC(=O)N(C)C)cc1 = > 4.40
CC1=NN(c2ccc(S(N)(=O)=O)cc2)C(=O)/C1=C\c1ccc(-c2ccccc2)cc1 = > 5.00
CC1=NN(c2ccccc2)C(=O)/C1=C\c1ccc(OCCCN(C)C)cc1 = > 4.40

Each compound below has a reported value. Please supply its pIC50.
1. CC1=NN(c2ccc(S(=O)(=O)N3CCC(O)CC3)cc2)C(=O)/C1=C\c1ccc2c(c1)OCO2
2. O=C(O)c1ccc(N2N=C(c3cccnc3)/C(=C/c3ccc(N4CCCC4)cc3)C2=O)cc1
3. CC1=NN(c2cccc(C(=O)O)c2)C(=O)/C1=C\c1ccsc1
4. CC1=NN(c2ccc(C(=O)O)cc2)C(=O)/C1=C\c1cc2ccccc2n1C
5. CC1=NN(c2ccc(C(=O)O)cc2)C(=O)/C1=C\c1ccc(N2CCN(C(=O)OC(C)(C)C)CC2)cc1
6. O=C(O)c1ccc(N2N=C(c3cccnc3)C(=Cc3ccc4ccccc4c3)C2=O)cc1

Ans.
["> 4.40", "> 4.40", "> 4.40", "> 5.00", "4.70 to 5.00", "4.70 to 5.00"]

---

Kindly state IC50 for each of the entries shown.
# target_or_test_system: IκBα ubiquitinating enzyme (SCF complex: ROC1, Cullin1, Skp1, His-TrCP1; with E1, UbcH5b) (Homo sapiens, UniProt P62877+P63208+Q13616+Q9Y297)
# Construct: His (polyhistidine); made in house; host or cells: insect cells (baculovirus) for the SCF complex and His-E1; E. coli for His-UBCH5b
# method_notes: Measurement of ubiquitinating enzyme activity (IκBα ubiquitination, time-resolved fluorescence with Eu(K)-labeled ubiquitin and XL665-labeled anti-GST antibody)
# Assay type: biochemical
# condition: enzyme activity inhibition test, method (1), Table 5; read-out: EVALUATION
# Description: Method 1: Measurement of ubiquitinating enzyme activity A recombinant vector His-UBCH5b containing a polyhistidine tag (His) and UBCH5b was prepared. E. coli was transformed with the vector, the protein was expressed, and affinity purification was carried out using Ni-NTA agarose (Qiagen). […]

CCCCC1=NN(c2ccccc2)C(=O)C1=Cc1ccc(N2CCN(C)CC2)cc1 [Compound 106] = < 40 µM

Fill in IC50 for each of the 3 compounds listed.
1. CCOC(=O)c1ccc(COc2ccc(/C=C3\C(=O)N(c4ccc(S(N)(=O)=O)cc4)N=C3C)cc2OC)o1 [Compound 154]
2. CN1CCN(c2ccc(/C=C3\C(=O)N(c4ccc(C(=O)O)cc4)N=C3C3CC3)cc2)CC1 [Compound 321]
3. CC1=NN(c2cccc(C(=O)O)c2)C(=O)/C1=C\c1ccoc1 [Compound 418]

Ans.
["< 10 µM", "< 10 µM", "10 to 20 µM"]
